The reported measurements were obtained from paper PMC7006954.

molecular target: human CD4 (CD4-YFP) expression in CHO•CD4-YFP cells (Homo sapiens, UniProt P01730); test: CD4 down-modulation in CHO cells stably expressing CD4-YFP; format: cell-based; settings: read-out: IC50 CD4 (μM) mean ± SD; 50% down-modulation of CD4 expression, CD4-YFP transfected CHO cells, 24 h drug treatment; n ≥ 3; benzyl-tailed compounds
Property Label: DC50

Mol Smiles: C=C1CNCCCN(Cc2ccccc2)CCCN(S(=O)(=O)c2ccc(C)cc2)C1
Study Target: human CD4 (CD4-YFP) expression in CHO•CD4-YFP cells (Homo sapiens, UniProt P01730)
DC50: > 50 µM

Challenge: Consider the compound `C=C1CN(C(=O)c2ccc(N)cc2)CCCN(Cc2ccccc2)CCCN(S(=O)(=O)c2ccc(C)cc2)C1.Cl` and give its measured DC50.
Response given: > 50 µM

Challenge: # DC50 lookup, item `C=C1CN(C(=O)c2ccc([N+](=O)[O-])cc2)CCCN(Cc2ccccc2)CCCN(S(=O)(=O)c2ccc(C)cc2)C1`
Response given: > 50 µM
